Field: HepSE_liver disease. Provide a value for each of the molecules that follow.
# Tested on: Hepatotoxicity
One number for each entry.

I would be grateful if you could provide HepSE_liver disease for each of the following entries.
1. CC(C)(C)C(=O)OCOP(=O)(COCCn1cnc2c(N)ncnc21)OCOC(=O)C(C)(C)C [ADEFOVIR DIPIVOXIL]
2. CC(=O)N[C@@H](CS)C(=O)O [ACETYLCYSTEINE]
3. C=C1C[C@@H]2[C@H](CC[C@]3(C)C(=O)CC[C@@H]23)[C@@]2(C)C=CC(=O)C=C12 [EXEMESTANE]
4. CN1C(=O)CC(C)(c2ccccc2)C1=O (centres undefined) [METHSUXIMIDE]

0
0
0
0

* * *

# System: Hepatotoxicity
Where a SMILES comes first, the peptide text is derived from it. Bridges are numbered along the chain shown (N, C = ends). [ ]: non-standard residue; d: D form. hArg = N=C(N)NCCCC[C@H](N)C(=O)O; Mpa = O=C(O)CCS
endpointName: HepSE_hepatitis
One number for each entry.

State the recorded HepSE_hepatitis for every item in the following list.
1. COCCCOc1cc(C[C@@H](C[C@H](N)[C@@H](O)C[C@H](C(=O)NCC(C)(C)C(N)=O)C(C)C)C(C)C)ccc1OC
2. N[C@@H](Cc1ccc(N(CCCl)CCCl)cc1)C(=O)O

[0, 1]

For each entry beneath this line, provide reported HepSE_hepatitis.
1. CCCCCCCCCCC[C@@H](C[C@@H]1OC(=O)[C@H]1CCCCCC)OC(=O)[C@H](CC(C)C)NC=O
2. N=C(N)NCCCC[C@@H]1NC(=O)CCSSC[C@@H](C(N)=O)NC(=O)[C@@H]2CCCN2C(=O)[C@H](Cc2c[nH]c3ccccc23)NC(=O)[C@H](CC(=O)O)NC(=O)CNC1=O [EPTIFIBATIDE] ([Mpa][hArg]GDWPC-NH2; disulfide 1-7)
3. CCOC(=O)[C@H](CCc1ccccc1)N[C@H]1CCc2ccccc2N(CC(=O)O)C1=O
4. CC1(C)O[C@@H]2C[C@H]3[C@@H]4C[C@H](F)C5=CC(=O)C=C[C@]5(C)[C@@]4(F)[C@@H](O)C[C@]3(C)[C@]2(C(=O)CO)O1 [FLUOCINOLONE ACETONIDE]

1. 1
2. 0
3. 1
4. 0

* * *

# Tested on: Hepatotoxicity
endpointName: HepSE_cholelithiasis
Answers are plain numbers.

# annotated cases, reported HepSE_cholelithiasis shown
| compound | HepSE_cholelithiasis |
| --- | --- |
| O=C(O)CCNC(=O)c1ccc(/N=N/c2ccc(O)c(C(=O)O)c2)cc1 [BALSALAZIDE] | 0 |
| COc1cc2ncnc(Nc3ccc(F)c(Cl)c3)c2cc1OCCCN1CCOCC1 | 0 |

Result for CC[C@H]1OC(=O)[C@H](C)[C@@H](O[C@H]2C[C@@](C)(OC)[C@@H](O)[C@H](C)O2)[C@H](C)[C@@H](O[C@@H]2O[C@H](C)C[C@H](N(C)C)[C@H]2O)[C@](C)(O)C[C@@H](C)CN(C)[C@H](C)[C@@H](O)[C@]1(C)O , tested on Hepatotoxicity, HepSE_cholelithiasis: 0

* * *

Could you please report measured DILI positive/negative for the items listed next?
# Tested on: Hepatotoxicity
# statedConditions: Liver
# Description: Drug Induced Liver Injury Prediction System (DILIps) validation dataset; compound DILI positive/negative as observed in LTKB-BD
Answers are plain numbers.

Reference set (5 entries):
| compound | DILI positive/negative |
| --- | --- |
| CN1CCC(Nc2ncc3ncnc(Nc4ccc(F)c(Cl)c4)c3n2)CC1 [FALNIDAMOL] | 1 |
| C=CCOc1ccc(CC(=O)O)cc1Cl [ALCLOFENAC] | 1 |
| O=C(O)COc1nn(Cc2ccccc2)c2ccccc12 [BENDAZAC] | 1 |
| CC1=NN(c2ccc(C)c(C)c2)C(=O)/C1=N\Nc1cccc(-c2cccc(C(=O)O)c2)c1O [ELTROMBOPAG] | 1 |
| Cc1cc(NS(=O)(=O)c2ccc(N)cc2)no1 [SULFAMETHOXAZOLE] | 1 |

For each entry beneath this line, provide reported DILI positive/negative.
1. Nc1ccc(S(=O)(=O)Nc2nccs2)cc1 [SULFATHIAZOLE]
2. O=C(OCC(O)CO)c1ccccc1Nc1ccnc2cc(Cl)ccc12 (centres undefined) [GLAFENINE]
3. CN(C)Cc1ccc(CSCCN/C(=C\[N+](=O)[O-])NCc2ccc3c(c2)OCO3)o1 [NIPEROTIDINE]
4. CS(=O)(=O)Nc1ccc([N+](=O)[O-])cc1Oc1ccccc1 [NIMESULIDE]

1. 1
2. 1
3. 1
4. 1
